These data points were gathered from patent US20190315842A1.

Measured AtheNA signal of individual entries
# Study target: histones
# Protocol summary: AtheNA Multi-Lyte ANA, Ab at 12.5 ug/ml

Binder: Ab7961/293i (antibody, IgG1, V domains shown) VH: LVESGGGVVQPGKSLRLSCVASGFTFSSYGMHWVRQAPGKGLEWVAVMSFDGKTKYYADSVKGRFTISRDNPKNTLYLQMNSLRSEDTAVYYCAKGGAAAAVFDSWGQGILLTVSS VL: MTQSPNSLAVSLGGRATINCKTSQSILYRSNNKNYLAWYQHKSGQPPKLLIYWASTRESGVPDRFSGSGSRTDFTLTISGLQAEDVAVYYCQQYYNPPWTFGQGTKVEIK
AtheNA signal: 69

Binder: Ab7962/293i (antibody, V domains shown) VH: LVESGGGLVQPGGSLRLSCAASGFTFSSYEMNWVRQAPGKGLEWVSYISSSGSTIYYADSVKGRFTISRDNAKNSLYLQMNSLRAEDTAVYYCARVEQLAPSPYMDVWGKGTTVTVSS VL: MTQSLDSLTVSLGERATINCKSSQSLLYTSNNKNYLAWYQQKSGQPPKLLIYWASIRDSGVPDRFSGSGSATDFTLTINNLQAEDVAVYFCQQYYKTPLTFGGGTKVEVR
AtheNA signal: 1

Binder: Ab7955 (antibody, V domains shown) VH: LVESGGGVVRPGRSLRLSCVASGFTFNAYGMHWVRQGPGKGLEWLAVISYEGKTVYYADSVKDRFTISRDNSRNTVSLHLNNLRGEDTAVYYCAKGSASAAVLQHWGQGTLVSVTS VL: MTQSPGSLAVSLGSRATINCKSSRSLLYRSNNKNYLAWYQQKPGQSPRLLIYWASSRESGVPDRFSGGGSGTSFTLTISSLQAEDVAVYYCQQYFNPPWTFGQGTKVEIK
AtheNA signal: 60
